# System: Escherichia coli TOP10;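 further: peptides expressed intracellularly from a pBAD plasmid library in pooled LB shake-flask culture, induced with 0.3% L-arabinose, DNA abundance read by NGS, three biological replicates, DESeq2 with apeglm shrinkage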
# test.protocol: shrunken log2 fold change of peptide-encoding DNA abundance (4.5 h post-induction vs induction); higher = less antimicrobial activity (less host growth inhibition)
# settings: time post-induction: 4.5 h; library: site-saturation at positions 5, 18, 19, 20
Classify as follows. Reported shrunken log2 fold change greater than or equal to 0.07: yes. Reported shrunken log2 fold change below: no.

Confirm if shrunken log2 fold change reported for the sequence RRIRQRPPRLPRPRPRPIYFPRP is 0.07 or above.
no

Confirm if shrunken log2 fold change reported for the sequence RRIRRRPPRLPRPRPRPPGKPRP is 0.07 or above.
yes

Confirm if shrunken log2 fold change reported for the sequence RRIRWRPPRLPRPRPRPCAWPRP is 0.07 or above.
no

Confirm if shrunken log2 fold change reported for the sequence RRIRRRPPRLPRPRPRPASFPRP is 0.07 or above.
yes

Confirm if shrunken log2 fold change reported for the sequence RRIRIRPPRLPRPRPRPYSGPRP is 0.07 or above.
no

Confirm if shrunken log2 fold change reported for the sequence RRIRFRPPRLPRPRPRPRKNPRP is 0.07 or above.
yes

Confirm if shrunken log2 fold change reported for the sequence RRIRKRPPRLPRPRPRPGAPPRP is 0.07 or above.
yes

Confirm if shrunken log2 fold change reported for the sequence RRIRLRPPRLPRPRPRPDFWPRP is 0.07 or above.
yes

Confirm if shrunken log2 fold change reported for the sequence RRIRERPPRLPRPRPRPGLWPRP is 0.07 or above.
yes

Confirm if shrunken log2 fold change reported for the sequence RRIRERPPRLPRPRPRPQHKPRP is 0.07 or above.
no

Confirm if shrunken log2 fold change reported for the sequence RRIRPRPPRLPRPRPRPLPKPRP is 0.07 or above.
yes

Confirm if shrunken log2 fold change reported for the sequence RRIRCRPPRLPRPRPRPLGVPRP is 0.07 or above.
no

Confirm if shrunken log2 fold change reported for the sequence RRIRPRPPRLPRPRPRPRWTPRP is 0.07 or above.
yes

Confirm if shrunken log2 fold change reported for the sequence RRIRDRPPRLPRPRPRPNNGPRP is 0.07 or above.
no

Confirm if shrunken log2 fold change reported for the sequence RRIRYRPPRLPRPRPRPYDNPRP is 0.07 or above.
no

Confirm if shrunken log2 fold change reported for the sequence RRIRNRPPRLPRPRPRPYTCPRP is 0.07 or above.
no

Confirm if shrunken log2 fold change reported for the sequence RRIRHRPPRLPRPRPRPYDYPRP is 0.07 or above.
no

Confirm if shrunken log2 fold change reported for the sequence RRIRIRPPRLPRPRPRPGIEPRP is 0.07 or above.
no

Confirm if shrunken log2 fold change reported for the sequence RRIRHRPPRLPRPRPRPNLWPRP is 0.07 or above.
yes

Confirm if shrunken log2 fold change reported for the sequence RRIRIRPPRLPRPRPRPQSNPRP is 0.07 or above.
no

Confirm if shrunken log2 fold change reported for the sequence RRIRQRPPRLPRPRPRPGMEPRP is 0.07 or above.
yes

Confirm if shrunken log2 fold change reported for the sequence RRIRERPPRLPRPRPRPAWTPRP is 0.07 or above.
no

Confirm if shrunken log2 fold change reported for the sequence RRIRYRPPRLPRPRPRPYHNPRP is 0.07 or above.
no

Confirm if shrunken log2 fold change reported for the sequence RRIRPRPPRLPRPRPRPNWTPRP is 0.07 or above.
yes

Confirm if shrunken log2 fold change reported for the sequence RRIRKRPPRLPRPRPRPDFEPRP is 0.07 or above.
no

Confirm if shrunken log2 fold change reported for the sequence RRIRCRPPRLPRPRPRPLYVPRP is 0.07 or above.
no

Confirm if shrunken log2 fold change reported for the sequence RRIRFRPPRLPRPRPRPFKKPRP is 0.07 or above.
no

Confirm if shrunken log2 fold change reported for the sequence RRIRKRPPRLPRPRPRPCEAPRP is 0.07 or above.
yes

Confirm if shrunken log2 fold change reported for the sequence RRIRPRPPRLPRPRPRPMSWPRP is 0.07 or above.
yes

Confirm if shrunken log2 fold change reported for the sequence RRIRMRPPRLPRPRPRPLHQPRP is 0.07 or above.
yes

Confirm if shrunken log2 fold change reported for the sequence RRIRCRPPRLPRPRPRPDCCPRP is 0.07 or above.
no

Confirm if shrunken log2 fold change reported for the sequence RRIRHRPPRLPRPRPRPASYPRP is 0.07 or above.
no

Confirm if shrunken log2 fold change reported for the sequence RRIRTRPPRLPRPRPRPLMSPRP is 0.07 or above.
no

Confirm if shrunken log2 fold change reported for the sequence RRIRSRPPRLPRPRPRPVWVPRP is 0.07 or above.
yes

Confirm if shrunken log2 fold change reported for the sequence RRIRPRPPRLPRPRPRPYPFPRP is 0.07 or above.
no

Confirm if shrunken log2 fold change reported for the sequence RRIRTRPPRLPRPRPRPPGMPRP is 0.07 or above.
yes

Confirm if shrunken log2 fold change reported for the sequence RRIRKRPPRLPRPRPRPIANPRP is 0.07 or above.
yes

Confirm if shrunken log2 fold change reported for the sequence RRIRTRPPRLPRPRPRPDCDPRP is 0.07 or above.
yes

Confirm if shrunken log2 fold change reported for the sequence RRIRHRPPRLPRPRPRPFDLPRP is 0.07 or above.
no

Confirm if shrunken log2 fold change reported for the sequence RRIRQRPPRLPRPRPRPTAPPRP is 0.07 or above.
yes

Confirm if shrunken log2 fold change reported for the sequence RRIRCRPPRLPRPRPRPPDGPRP is 0.07 or above.
no

Confirm if shrunken log2 fold change reported for the sequence RRIRGRPPRLPRPRPRPFDTPRP is 0.07 or above.
yes

Confirm if shrunken log2 fold change reported for the sequence RRIRVRPPRLPRPRPRPQCGPRP is 0.07 or above.
no

Confirm if shrunken log2 fold change reported for the sequence RRIRCRPPRLPRPRPRPVWEPRP is 0.07 or above.
yes

Confirm if shrunken log2 fold change reported for the sequence RRIRRRPPRLPRPRPRPGNKPRP is 0.07 or above.
no

Confirm if shrunken log2 fold change reported for the sequence RRIRGRPPRLPRPRPRPKYNPRP is 0.07 or above.
no

Confirm if shrunken log2 fold change reported for the sequence RRIRIRPPRLPRPRPRPWWYPRP is 0.07 or above.
no

Confirm if shrunken log2 fold change reported for the sequence RRIRKRPPRLPRPRPRPDENPRP is 0.07 or above.
yes

Confirm if shrunken log2 fold change reported for the sequence RRIRGRPPRLPRPRPRPLPRPRP is 0.07 or above.
yes

Confirm if shrunken log2 fold change reported for the sequence RRIRTRPPRLPRPRPRPWLIPRP is 0.07 or above.
no

Confirm if shrunken log2 fold change reported for the sequence RRIRVRPPRLPRPRPRPTKNPRP is 0.07 or above.
no

Confirm if shrunken log2 fold change reported for the sequence RRIRKRPPRLPRPRPRPWAKPRP is 0.07 or above.
no

Confirm if shrunken log2 fold change reported for the sequence RRIRLRPPRLPRPRPRPKTPPRP is 0.07 or above.
yes

Confirm if shrunken log2 fold change reported for the sequence RRIRPRPPRLPRPRPRPWYPPRP is 0.07 or above.
no

Confirm if shrunken log2 fold change reported for the sequence RRIRFRPPRLPRPRPRPPFLPRP is 0.07 or above.
no

Confirm if shrunken log2 fold change reported for the sequence RRIRLRPPRLPRPRPRPYFQPRP is 0.07 or above.
no

Confirm if shrunken log2 fold change reported for the sequence RRIRHRPPRLPRPRPRPLQAPRP is 0.07 or above.
no

Confirm if shrunken log2 fold change reported for the sequence RRIRMRPPRLPRPRPRPMMKPRP is 0.07 or above.
yes

Confirm if shrunken log2 fold change reported for the sequence RRIRMRPPRLPRPRPRPTPCPRP is 0.07 or above.
yes

Confirm if shrunken log2 fold change reported for the sequence RRIRDRPPRLPRPRPRPICEPRP is 0.07 or above.
yes

Confirm if shrunken log2 fold change reported for the sequence RRIRSRPPRLPRPRPRPDFTPRP is 0.07 or above.
no

Confirm if shrunken log2 fold change reported for the sequence RRIRHRPPRLPRPRPRPPKSPRP is 0.07 or above.
yes
